Source of measurements: ChEMBL document CHEMBL1126026

T/C for assorted compounds
# Organism: Mus musculus
# ASSAY REMARKS: Increase in life span, expressed as treated by control was determined in DBA2 mice inoculated with L1210 cells
# Type: functional

COMPOUND	T/C, %
COc1ccc2[nH]c3ccc4cc[n+](CCN5CCC(C6CCN(CC[n+]7ccc8ccc9[nH]c%10ccc(OC)cc%10c9c8c7)CC6)CC5)cc4c3c2c1.[Cl-].[Cl-] [DITERCALINIUM CHLORIDE]	182
COc1ccc2[nH]c3ccc4cc[n+](CCN5CCC(C6CCN(CC[n+]7ccc8ccc9[nH]c%10ccc(OC)cc%10c9c8c7)CC6)CC5)cc4c3c2c1.CS(=O)(=O)O.CS(=O)(=O)O.CS(=O)(=O)[O-].CS(=O)(=O)[O-]	182
COc1ccc2c(c1)c1c3c[n+](C)ccc3ccc1n2CCN1CCC(C2CCN(CCn3c4ccc(OC)cc4c4c5c[n+](C)ccc5ccc43)CC2)CC1.CS(=O)(=O)O.CS(=O)(=O)O.CS(=O)(=O)[O-].CS(=O)(=O)[O-]	134
COc1ccc2[nH]c3c(C)cc4cc[n+](CCN5CCC(C6CCN(CC[n+]7ccc8cc(C)c9[nH]c%10ccc(OC)cc%10c9c8c7)CC6)CC5)cc4c3c2c1.CS(=O)(=O)O.CS(=O)(=O)O.CS(=O)(=O)[O-].CS(=O)(=O)[O-]	172

---

# Tested on: Calf thymus DNA
# ASSAY REMARKS: Affinity constant for calf thymus DNA
# Format: nucleic-acid assay
# PARTICULARS: Bos taurus
MEASUREMENT KIND: Ka (M⁻¹)

SMILES ENTRY	MEASUREMENT KIND	MEASURE UNIT	CENSORING OPERATOR	ASSAY VALUE
COc1ccc2c(c1)c1c3cnccc3ccc1n2CCN1CCC(C2CCN(CCn3c4ccc(OC)cc4c4c5cnccc5ccc43)CC2)CC1.CS(=O)(=O)O.CS(=O)(=O)O	Ka	M⁻¹	=	1e+07
COc1ccc2[nH]c3c(C(=O)O)cc4cc[n+](CCN5CCC(C6CCN(CC[n+]7ccc8cc(C(=O)O)c9[nH]c%10ccc(OC)cc%10c9c8c7)CC6)CC5)cc4c3c2c1.CS(=O)(=O)O.CS(=O)(=O)O.CS(=O)(=O)[O-].CS(=O)(=O)[O-]	Ka	M⁻¹	=	250000
COc1ccc2[nH]c3c(C(=O)NCCN4CCC(C5CCN(CCNC(=O)c6cc7ccncc7c7c6[nH]c6ccc(OC)cc67)CC5)CC4)cc4ccncc4c3c2c1	Ka	M⁻¹	=	2e+08
COc1ccc2[nH]c3ccc4cc[n+](CCN5CCC(C6CCN(CC[n+]7ccc8ccc9[nH]c%10ccc(OC)cc%10c9c8c7)CC6)CC5)cc4c3c2c1	Ka	M⁻¹	=	1e+07
COc1ccc2[nH]c3c(CNC(=O)[C@]4(O)O[C@H](CO)[C@H](O)[C@H]4O)cc4cc[n+](CCN5CCC(C6CCN(CC[n+]7ccc8cc(CNC(=O)[C@]9(O)O[C@H](CO)[C@H](O)[C@H]9O)c9[nH]c%10ccc(OC)cc%10c9c8c7)CC6)CC5)cc4c3c2c1	Ka	M⁻¹	=	3e+06
COc1ccc2[nH]c3c(CN)cc4cc[n+](CCN5CCC(C6CCN(CC[n+]7ccc8cc(CN)c9[nH]c%10ccc(OC)cc%10c9c8c7)CC6)CC5)cc4c3c2c1.CS(=O)(=O)O.CS(=O)(=O)O.CS(=O)(=O)[O-].CS(=O)(=O)[O-]	Ka	M⁻¹	=	2e+07
COc1ccc2c(c1)c1c3c(ccc1n2C)CCN(CCN1CCC(C2CCN(CCN4CCc5ccc6c(c5C4)c4cc(OC)ccc4n6C)CC2)CC1)C3.CS(=O)(=O)O.CS(=O)(=O)O	Ka	M⁻¹	=	4e+07
COc1ccc2c(c1)c1c3c[n+](C)ccc3ccc1n2CCN1CCC(C2CCN(CCn3c4ccc(OC)cc4c4c5c[n+](C)ccc5ccc43)CC2)CC1.CS(=O)(=O)O.CS(=O)(=O)O.CS(=O)(=O)[O-].CS(=O)(=O)[O-]	Ka	M⁻¹	>	1e+09
COc1ccc2[nH]c3c(C)cc4cc[n+](CCN5CCC(C6CCN(CC[n+]7ccc8cc(C)c9[nH]c%10ccc(OC)cc%10c9c8c7)CC6)CC5)cc4c3c2c1.CS(=O)(=O)O.CS(=O)(=O)O.CS(=O)(=O)[O-].CS(=O)(=O)[O-]	Ka	M⁻¹	=	5e+08

---

OD for assorted compounds
# Organism: Mus musculus
# ASSAY REMARKS: Optimal dose required against DBA2 mice inoculated with L1210 cells
# Format: functional
MEASUREMENT KIND: OD (mg/kg)

SMILES ENTRY	MEASURE UNIT	ASSAY VALUE
COc1ccc2[nH]c3c(CN)cc4cc[n+](CCN5CCC(C6CCN(CC[n+]7ccc8cc(CN)c9[nH]c%10ccc(OC)cc%10c9c8c7)CC6)CC5)cc4c3c2c1.CS(=O)(=O)O.CS(=O)(=O)O.CS(=O)(=O)[O-].CS(=O)(=O)[O-]	mg/kg	10
COc1ccc2c(c1)c1c3c[n+](C)ccc3ccc1n2CCN1CCC(C2CCN(CCn3c4ccc(OC)cc4c4c5c[n+](C)ccc5ccc43)CC2)CC1.CS(=O)(=O)O.CS(=O)(=O)O.CS(=O)(=O)[O-].CS(=O)(=O)[O-]	mg/kg	5
COc1ccc2[nH]c3c(C(=O)NCCN4CCC(C5CCN(CCNC(=O)c6cc7ccncc7c7c6[nH]c6ccc(OC)cc67)CC5)CC4)cc4ccncc4c3c2c1	mg/kg	10

---

# Species on record: Mus musculus
# ASSAY REMARKS: Optimal dose required against DBA2 mice inoculated with L1210 cells
# Assay type: functional

COMPOUND	OD
COc1ccc2[nH]c3ccc4cc[n+](CCN5CCC(C6CCN(CC[n+]7ccc8ccc9[nH]c%10ccc(OC)cc%10c9c8c7)CC6)CC5)cc4c3c2c1.CS(=O)(=O)O.CS(=O)(=O)O.CS(=O)(=O)[O-].CS(=O)(=O)[O-]	10 mg/kg
COc1ccc2[nH]c3c(C)cc4cc[n+](CCN5CCC(C6CCN(CC[n+]7ccc8cc(C)c9[nH]c%10ccc(OC)cc%10c9c8c7)CC6)CC5)cc4c3c2c1.CS(=O)(=O)O.CS(=O)(=O)O.CS(=O)(=O)[O-].CS(=O)(=O)[O-]	7 mg/kg
COc1ccc2[nH]c3ccc4cc[n+](CCN5CCC(C6CCN(CC[n+]7ccc8ccc9[nH]c%10ccc(OC)cc%10c9c8c7)CC6)CC5)cc4c3c2c1.[Cl-].[Cl-] [DITERCALINIUM CHLORIDE]	10 mg/kg
COc1ccc2c(c1)c1c3cnccc3ccc1n2CCN1CCC(C2CCN(CCn3c4ccc(OC)cc4c4c5cnccc5ccc43)CC2)CC1.CS(=O)(=O)O.CS(=O)(=O)O	10 mg/kg
COc1ccc2c(c1)c1c3c(ccc1n2C)CCN(CCN1CCC(C2CCN(CCN4CCc5ccc6c(c5C4)c4cc(OC)ccc4n6C)CC2)CC1)C3.CS(=O)(=O)O.CS(=O)(=O)O	10 mg/kg

---

# Test system: L1210
# ASSAY REMARKS: Dose required to inhibit the cloning efficacy of L1210 cells to a factor of 0.37 after 24-h exposure to the compound
# Assay type: functional, Mus musculus
MEASUREMENT KIND: log10(ED37) (log10 of the value in µM)

COMPOUND	log10(ED37)
COc1ccc2[nH]c3c(CN)cc4cc[n+](CCN5CCC(C6CCN(CC[n+]7ccc8cc(CN)c9[nH]c%10ccc(OC)cc%10c9c8c7)CC6)CC5)cc4c3c2c1.CS(=O)(=O)O.CS(=O)(=O)O.CS(=O)(=O)[O-].CS(=O)(=O)[O-]	-1.18
COc1ccc2[nH]c3ccc4cc[n+](CCN5CCC(C6CCN(CC[n+]7ccc8ccc9[nH]c%10ccc(OC)cc%10c9c8c7)CC6)CC5)cc4c3c2c1.CS(=O)(=O)O.CS(=O)(=O)O.CS(=O)(=O)[O-].CS(=O)(=O)[O-]	-1.70
COc1ccc2[nH]c3ccc4cc[n+](CCN5CCC(C6CCN(CC[n+]7ccc8ccc9[nH]c%10ccc(OC)cc%10c9c8c7)CC6)CC5)cc4c3c2c1.[Cl-].[Cl-] [DITERCALINIUM CHLORIDE]	-1.62
COc1ccc2[nH]c3c(C(=O)NCCN4CCC(C5CCN(CCNC(=O)c6cc7ccncc7c7c6[nH]c6ccc(OC)cc67)CC5)CC4)cc4ccncc4c3c2c1	1.48
COc1ccc2[nH]c3c(C)cc4cc[n+](CCN5CCC(C6CCN(CC[n+]7ccc8cc(C)c9[nH]c%10ccc(OC)cc%10c9c8c7)CC6)CC5)cc4c3c2c1.CS(=O)(=O)O.CS(=O)(=O)O.CS(=O)(=O)[O-].CS(=O)(=O)[O-]	-1.00
COc1ccc2c(c1)c1c3c(ccc1n2C)CCN(CCN1CCC(C2CCN(CCN4CCc5ccc6c(c5C4)c4cc(OC)ccc4n6C)CC2)CC1)C3.CS(=O)(=O)O.CS(=O)(=O)O	-0.22
